B1: ZBTB22 (parent)
chain: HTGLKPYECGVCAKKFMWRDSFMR

variants of: B1; experiment: protein stability index of a GFP-peptide fusion (GPS, HEK-293T) (PSI 1-6); higher = more stable; settings: c terminus: a fixed tail appended;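 also: lentivirally expressed fusions sorted by FACS into six bins by GFP to DsRed ratio, PSI derived from sequencing read proportions per bin multiplied by bin number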
Category scheme (protein stability index): b0 (below 2), b1 (2 to below 3), b2 (3 or more)

A selection of reference data follows.
Input: Could you place L4I in its proper category? Many thanks.
Output: b1

Input: Could you place M23P in its proper category? Many thanks.
Output: b1

Others:
Input: Could you place G3K in its proper category? Many thanks.
Output: b1

Input: Could you place D20V in its proper category? Many thanks.
Output: b0

Input: Could you place E8Y in its proper category? Many thanks.
Output: b0
